Target entity: native human Bradykinin B1 receptor (Homo sapiens)
Construct: which express native human Bradykinin B1 receptor after induction with human IL-10; Coriell Institute
Sequence (P46663 whole entry): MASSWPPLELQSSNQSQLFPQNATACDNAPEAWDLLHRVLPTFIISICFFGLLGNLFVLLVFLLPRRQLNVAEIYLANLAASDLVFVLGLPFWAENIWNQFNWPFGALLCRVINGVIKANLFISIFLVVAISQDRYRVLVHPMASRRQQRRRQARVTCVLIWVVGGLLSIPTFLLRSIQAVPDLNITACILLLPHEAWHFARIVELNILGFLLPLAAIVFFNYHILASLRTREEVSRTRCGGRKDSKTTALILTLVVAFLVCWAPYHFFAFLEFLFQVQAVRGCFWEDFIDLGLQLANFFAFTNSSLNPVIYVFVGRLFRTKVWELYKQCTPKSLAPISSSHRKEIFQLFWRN
Test name: Calcium flux Assay (FLIPR) with human fibroblasts expressing Bradykinin B1 receptor (hB1 IMR-90)
Experimental context: IMR-90 human fibroblasts expressing native Bradykinin B1 receptor
Lab note: anything with IC50 below 20 nM is marked 1; values at 20 nM or higher are marked 0.

| Molecule | Discrete label |
| --- | --- |
| CCOc1ccc(-c2ccc(NC(=O)C3(c4ccc(F)c(F)c4)CC3)cc2-c2nnn[nH]2)cn1 [Example 82] | 1 |
| CO[C@H]1CC[C@H](c2ccc(NC(=O)C3(c4cccc(Cl)c4)CC3)cc2-c2nnn[nH]2)CC1 [Example 190] | 0 |
| CCOc1ncc(-c2ccc(NC(=O)C3(c4cccc(Cl)c4F)CC3)cc2-c2nnn[nH]2)cn1 [Example 183] | 1 |
| COc1ccc(-c2ccc(NC(=O)C3(c4ccc(C(F)(F)F)cc4)CC3)cc2-c2nnn[nH]2)cc1OC [Example 44] | 1 |
| COc1ccc(-c2ccc(NC(=O)C3(c4cc(Cl)ccc4F)CC3)cc2-c2nnn[nH]2)cc1OC [Example 17] | 0 |
| CCOc1ccc(-c2ccc(NC(=O)C3(c4ccc(F)c(C)c4)CC3)cc2-c2nnn[nH]2)cn1 [Example 102] | 0 |
| CCOc1ccc(-c2ncc(NC(=O)C3(c4cccc(Cl)c4)CC3)cc2-c2nnn[nH]2)cn1 [Example 218] | 0 |

###

Target entity: human Bradykinin B1 receptor (Homo sapiens, UniProt P46663)
Construct: host or cells: CHO-K1
Sequence (P46663 whole entry): as above
Test name: Calcium flux Assay (FLIPR) with recombinant CHO-K1 cells expressing human Bradykinin B1 receptor, in presence (hB1 IC50) or absence (hB1 free IC50) of 0.1% BSA
Assay type: cell-based
Experimental context: in absence of 0.1% BSA, read-out: hB1 free IC50
Description: The potency to inhibit the Bradykinin B1 receptor was determined for the compounds of this invention in a cell-based fluorescent calcium-mobilisation assay. […] The change of the intracellular Ca^2+ concentration is monitored with a fluorescent plate reader FLIPR TETRA® (Molecular Devices). […] Peak fluorescence was used to determine the response to agonist obtained at each concentration of compound examples by the following equation: […]
Below, each entry is listed with its recorded IC50.

| Compound string | Unit of measure | IC50 |
| --- | --- | --- |
| O=C(Nc1ccc(-c2ccc(C(F)F)nc2)c(-c2nnn[nH]2)c1)C1(c2ccc(Cl)c(F)c2)CC1 | nM | 4.72 |
| CCc1ccc(-c2ccc(NC(=O)C3(c4cccc(Cl)c4)CC3)cc2-c2nnn[nH]2)cn1 | nM | 8.98 |
| O=C(Nc1ccc(-n2cnc(C(F)(F)F)c2)c(-c2nnn[nH]2)c1)C1(c2cccc(Cl)c2)CC1 | nM | 1200 |
| N#Cc1ccc(-c2ccc(NC(=O)C3(c4cccc(Cl)c4)CC3)cc2-c2nnn[nH]2)cc1F | nM | 252 |

###

Target entity: human Bradykinin B1 receptor (Homo sapiens)
Construct: host or cells: CHO-K1
Test name: Calcium flux Assay (FLIPR) with recombinant CHO-K1 cells expressing human Bradykinin B1 receptor, in presence (hB1 IC50) or absence (hB1 free IC50) of 0.1% BSA
Assay type: cell-based
Experimental context: in absence of 0.1% BSA, read-out: hB1 free IC50
Description: The potency to inhibit the Bradykinin B1 receptor was determined for the compounds of this invention in a cell-based fluorescent calcium-mobilisation assay. […] The change of the intracellular Ca^2+ concentration is monitored with a fluorescent plate reader FLIPR TETRA® (Molecular Devices). […] Peak fluorescence was used to determine the response to agonist obtained at each concentration of compound examples by the following equation: […]
Measured attribute: IC50 (nM)

| Compound | Unit of measure | Meas value |
| --- | --- | --- |
| O=C(Nc1cc(Cl)c(-c2ccc(C(F)(F)F)nc2)c(-c2nnn[nH]2)c1)C1(c2cccc(Cl)c2)CC1 | nM | 44 |
| CCC1CCN(c2ccc(NC(=O)C3(c4ccc(C(F)(F)F)cc4F)CC3)cc2-c2nnn[nH]2)C1=O (stereo not shown) | nM | 131 |
| CCc1ccn(-c2ccc(NC(=O)C3(c4ccc(OC(F)(F)F)cc4F)CC3)cc2-c2nnn[nH]2)n1 | nM | 24.2 |
| Cc1ccc(C2(C(=O)Nc3ccc(-n4cnc(C(C)(C)C)c4)c(-c4nnn[nH]4)c3)CC2)c(F)c1 | nM | 25.3 |
| CCOc1ncc(-c2ccc(NC(=O)C3(c4cccc(Cl)c4)CC3)cc2-c2nnn[nH]2)cc1C | nM | 8.13 |
| Cc1cc(-c2c(F)cc(NC(=O)C3(c4ccc(C(F)(F)F)cc4F)CC3)cc2-c2nnn[nH]2)ccn1 | nM | 2.63 |
| Cc1cc(-c2ccc(NC(=O)C3(c4cccc(Cl)c4F)CC3)cc2-c2nnn[nH]2)ccn1 | nM | 10.5 |
